Sourced from the supplement of paper PMC6555819

Task for the reader: assign each of the following sequences its reported PBM binding z-score.
Test system: VDR homodimer (NR concentration 270 nM)
assay procedure: PBM binding z-score (relative to random genomic background probes); higher = stronger binding; sequences stand for … in GC…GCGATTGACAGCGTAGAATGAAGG
Give a plain numeric answer without units written out.

# input Quick one: PBM binding z-score for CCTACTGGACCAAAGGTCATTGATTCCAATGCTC ?
# output 3.18

# input For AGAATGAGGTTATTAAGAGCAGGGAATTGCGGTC , what is its reported PBM binding z-score?
# output 1.21

# input // returns reported PBM binding z-score for input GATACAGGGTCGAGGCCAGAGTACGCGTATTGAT
# output 0.897

# input Item under review: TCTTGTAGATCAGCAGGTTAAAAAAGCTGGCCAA . Reported PBM binding z-score?
# output -0.268

# input For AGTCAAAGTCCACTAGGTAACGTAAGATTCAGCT , what is its reported PBM binding z-score?
# output -0.159

# input Any idea what its PBM binding z-score is? The sequence is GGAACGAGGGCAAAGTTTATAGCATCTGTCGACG
# output 2.22

# input Value lookup for PBM binding z-score; key = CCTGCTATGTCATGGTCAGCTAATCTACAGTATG
# output -0.566

# input Please give the measured PBM binding z-score for this sequence: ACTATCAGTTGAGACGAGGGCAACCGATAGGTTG
# output 0.822

# input Could you tell me which PBM binding z-score is on file for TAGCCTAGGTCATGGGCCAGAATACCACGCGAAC ?
# output -0.109

# input Query: PBM binding z-score; subject: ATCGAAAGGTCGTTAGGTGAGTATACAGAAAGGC
# output 1.84

# input Which PBM binding z-score is reported for this sequence? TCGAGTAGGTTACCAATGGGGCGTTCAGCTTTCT
# output -0.531

# input Could you tell me which PBM binding z-score is on file for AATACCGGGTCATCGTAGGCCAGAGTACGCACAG ?
# output 3.06

# input Which value of PBM binding z-score has been reported for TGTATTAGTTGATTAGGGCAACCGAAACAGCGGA in the records?
# output 0.784

# input Which PBM binding z-score is reported for this sequence? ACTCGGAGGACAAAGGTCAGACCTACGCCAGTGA
# output 1.81

# input Param item = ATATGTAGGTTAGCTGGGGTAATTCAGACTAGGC ; retrieve measured PBM binding z-score.
# output 0.606

# input What does the record list as PBM binding z-score for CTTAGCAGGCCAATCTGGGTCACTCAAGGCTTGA ?
# output -0.119

# input Query: PBM binding z-score; subject: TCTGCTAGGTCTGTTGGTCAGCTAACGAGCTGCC
# output -1.23

# input Would you kindly share the measured PBM binding z-score for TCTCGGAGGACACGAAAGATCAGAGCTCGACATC ?
# output -0.53

# input Tell me the measured PBM binding z-score of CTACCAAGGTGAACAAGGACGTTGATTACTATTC , please.
# output 0.537

# input Which PBM binding z-score value is on record for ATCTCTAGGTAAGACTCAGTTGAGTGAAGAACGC ?
# output 0.119

# input Quick one: PBM binding z-score of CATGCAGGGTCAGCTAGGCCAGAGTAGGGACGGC ?
# output 1.16

# input Item under review: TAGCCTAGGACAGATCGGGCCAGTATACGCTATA . Reported PBM binding z-score?
# output -0.922

# input Return reported PBM binding z-score; argument: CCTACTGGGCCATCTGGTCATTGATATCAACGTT
# output -0.0886

# input Request the reported PBM binding z-score associated with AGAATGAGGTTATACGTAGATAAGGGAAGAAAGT
# output 0.781

# input Looking for the measured PBM binding z-score of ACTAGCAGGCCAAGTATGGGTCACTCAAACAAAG , can you help?
# output 0.0355

# input Quick one: PBM binding z-score for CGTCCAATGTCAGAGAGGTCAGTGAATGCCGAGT ?
# output 2.91

# input Param item = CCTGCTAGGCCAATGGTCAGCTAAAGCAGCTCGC ; retrieve measured PBM binding z-score.
# output -0.962

# input I have this sequence here, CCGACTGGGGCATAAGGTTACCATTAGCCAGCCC , and I need its recorded PBM binding z-score.
# output -0.611

# input What measured PBM binding z-score goes with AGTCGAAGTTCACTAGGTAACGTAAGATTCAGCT ?
# output 2.7

# input What measured PBM binding z-score goes with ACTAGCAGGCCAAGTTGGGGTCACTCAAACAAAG ?
# output 3.34

# input Would you mind telling me what PBM binding z-score value was observed for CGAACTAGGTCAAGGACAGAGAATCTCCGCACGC ?
# output 0.0808

# input Return reported PBM binding z-score; argument: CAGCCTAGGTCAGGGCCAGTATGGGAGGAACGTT
# output -0.378

# input Quick one: PBM binding z-score for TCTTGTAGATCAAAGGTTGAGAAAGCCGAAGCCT ?
# output -0.223

# input Reported PBM binding z-score, sequence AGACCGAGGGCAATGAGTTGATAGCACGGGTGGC : ____
# output 3.16

# input // returns reported PBM binding z-score for input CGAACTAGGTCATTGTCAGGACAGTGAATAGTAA
# output 1.82

# input What value of PBM binding z-score has been recorded for this entry: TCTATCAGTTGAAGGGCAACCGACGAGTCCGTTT
# output 1.44

# input I am curious: what PBM binding z-score value has been reported for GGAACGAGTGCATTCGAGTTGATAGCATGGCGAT ?
# output 4.44

# input Could you tell me which PBM binding z-score is on file for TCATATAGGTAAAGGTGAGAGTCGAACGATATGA ?
# output -0.128

# input Quick check: PBM binding z-score of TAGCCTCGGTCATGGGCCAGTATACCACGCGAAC ?
# output -0.408

# input Please look up its PBM binding z-score: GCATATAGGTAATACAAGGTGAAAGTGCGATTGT
# output 0.133

# input Could you tell me which PBM binding z-score is on file for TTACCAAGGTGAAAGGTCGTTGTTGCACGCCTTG ?
# output 1.08

# input // returns reported PBM binding z-score for input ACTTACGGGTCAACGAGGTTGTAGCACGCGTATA
# output 2.86

# input Would you mind telling me what PBM binding z-score value was observed for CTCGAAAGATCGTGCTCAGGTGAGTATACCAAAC ?
# output -0.082

# input Consider the sequence shown here: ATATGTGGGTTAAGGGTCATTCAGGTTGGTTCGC What is its recorded PBM binding z-score?
# output 4.82

# input I'd like to know its PBM binding z-score. The sequence in question is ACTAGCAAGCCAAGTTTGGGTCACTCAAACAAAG
# output -0.115

# input Fill in: PBM binding z-score of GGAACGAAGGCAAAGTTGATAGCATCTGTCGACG is ___
# output -1.02

# input Look up PBM binding z-score: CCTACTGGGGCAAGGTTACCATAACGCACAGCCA
# output 0.0551

# input Could you share which PBM binding z-score value was measured for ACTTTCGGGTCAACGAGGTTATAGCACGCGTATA ?
# output 4.05

# input For the sequence shown here, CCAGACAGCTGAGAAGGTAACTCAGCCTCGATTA , give the reported PBM binding z-score.
# output -0.494

# input So what's the measured PBM binding z-score for this one? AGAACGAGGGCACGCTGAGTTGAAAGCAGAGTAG
# output 0.663

# input Param item = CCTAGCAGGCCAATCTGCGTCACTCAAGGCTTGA ; retrieve measured PBM binding z-score.
# output -0.294
